# tested_target: pERK1/2 (Thr202/Tyr204), PANC-1 (KRAS G121D) (Homo sapiens, UniProt P01116, G12D)
# Construct: pERK1/2 HTRF read-out
# Sequence (P01116 1-188 isoform P01116-2 G12D): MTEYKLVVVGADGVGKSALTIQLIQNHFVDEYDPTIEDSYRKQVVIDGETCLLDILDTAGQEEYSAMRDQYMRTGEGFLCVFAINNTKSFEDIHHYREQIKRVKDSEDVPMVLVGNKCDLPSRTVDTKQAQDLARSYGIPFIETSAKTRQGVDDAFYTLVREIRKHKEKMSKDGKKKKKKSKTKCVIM
# procedure_details: Assay of intracellular pERK1/2 (Thr202/Tyr204) phosphorylation in PANC-1 cells (KRAS G12D)
# Type: cell-based
# recorded_conditions: read-out: PANC-1 (KRAS G12D) IC50, pERK1/2, 2 days
# reported pIC50; entries follow
// pIC50 is dimensionless: -log10 of concentration (M)

Query: Form field: reported pIC50 of CCc1c(F)ccc2cc(OC(=O)NC)cc(-c3nc4c5c(nc(OC[C@@]67CCCN6C[C@H](F)C7)nc5c3F)N(C(C)c3cccnc3N)[C@@H](C)CO4)c12 (stereo partly drawn)
Response: 9.52

Query: Quick one: CC(c1cccnc1N)N1CCOc2nc(-c3cc(O)cc4ccc(F)c(F)c34)c(F)c3nc(OC[C@@]45CCCN4C[C@H](F)C5)nc1c23 (stereo partly drawn)
Response: 8.22

Query: Follow-up item: CCNC(=O)Oc1cc(Cl)c(C2CC2)c(-c2nc3c4c(nc(OC[C@@]56CCCN5C[C@H](F)C6)nc4c2F)N(C(C)c2cccnc2N)[C@@H](C)CO3)c1 (stereo partly drawn)
Response: 9.30

###

# tested_target: pERK1/2 (Thr202/Tyr204), PANC-1 (KRAS G121D) (Homo sapiens, UniProt P01116, G12D)
# Construct: pERK1/2 HTRF read-out
# procedure_details: Assay of intracellular pERK1/2 (Thr202/Tyr204) phosphorylation in PANC-1 cells (KRAS G12D)
# Format: cell-based
# recorded_conditions: read-out: PANC-1 (KRAS G12D) IC50, pERK1/2, 2 days
endpoint: IC50 (nM)
The answer is to be given in nM; state only the numeric part.

Here are 4 molecules together with their reported answers.
INSERT INTO assay_data (molecule, value) VALUES
  ('CCc1c(F)ccc2cc(OC(=O)N3CCOCC3)cc(-c3nc4c5c(nc(OC[C@@]67CCCN6C[C@H](F)C7)nc5c3F)N(C(C)c3cccnc3N)[C@@H](C)CO4)c12 (stereo partly drawn)', 16),
  ('CCc1c(F)ccc2cc(OC(=O)N(C)C)cc(-c3nc4c5c(nc(OC[C@@]67CCCN6C[C@H](F)C7)nc5c3F)N(C(C)c3cccnc3N)[C@@H](C)CO4)c12 (stereo partly drawn)', 77),
  ('CCc1c(F)ccc2cc(OC(=O)N3CCC3)cc(-c3nc4c5c(nc(OC[C@@]67CCCN6C[C@H](F)C7)nc5c3F)N(C(C)c3cccnc3N)[C@@H](C)CO4)c12 (stereo partly drawn)', 55),
  ('CCNC(=O)Oc1cc(-c2nc3c4c(nc(OC[C@@]56CCCN5C[C@H](F)C6)nc4c2F)N(C(C)c2cccnc2N)[C@@H](C)CO3)c2c(CC)c(F)ccc2c1 (stereo partly drawn)', 0.5);

Please find the next molecule below.
Query: Field request: IC50 | item: CNC(=O)Oc1cc(Cl)c(C2CC2)c(-c2nc3c4c(nc(OC[C@@]56CCCN5C[C@H](F)C6)nc4c2F)N(C(C)c2cccnc2N)[C@@H](C)CO3)c1 (stereo partly drawn)
Response: 0.5

###

# tested_target: pERK1/2 (Thr202/Tyr204), PANC-1 (KRAS G121D) (Homo sapiens, UniProt P01116, G12D)
# Construct: pERK1/2 HTRF read-out
# procedure_details: Assay of intracellular pERK1/2 (Thr202/Tyr204) phosphorylation in PANC-1 cells (KRAS G12D)
# Type: cell-based
# recorded_conditions: pERK1/2, 2 days, read-out: PANC-1 (KRAS G12D) IC50
Measured IC50, listed per entry.

Consider the following illustrative entries.
INSERT INTO results (compound, endpoint, value) VALUES
  ('CC(c1cccnc1N)N1CCOc2nc(-c3cc(N)cc(F)c3C(F)(F)F)c(F)c3nc(OC[C@@H]4C[C@@H](F)CN4C)nc1c23 (single isomer, unassigned) [Compound 93]', 'IC50', '> 100 nM'),
  ('Cc1c(F)c(N)cc(-c2nc3c4c(nc(OC[C@]56CCCN5C[C@@H](F)C6)nc4c2F)N(C(C)c2cccnc2N)CCO3)c1C(F)(F)F (stereo partly drawn) [Compound 163]', 'IC50', '6 nM');

API: the following record is the query input.
Query: IC50; subject: CC(c1cccnc1N)N1CCOc2nc(-c3cc(N)cc(Cl)c3C(F)(F)F)c(F)c3nc(OC[C@@]45CCCN4C[C@H](F)C5)nc1c23 (single isomer, unassigned) [Compound 72]
Response: 38 nM
